Attribution: patent US20260083750A1

We begin with a simple list: items and their reported pIC50.
molecular target: KRAS-G12V (Homo sapiens, UniProt P01116, G12V); construct: N-terminal biotin-acceptor peptide […]; experiment: SOS-catalyzed nucleotide exchange assay (Procedure A, TR-FRET); conditions: 60 min preincubation, SOS + GTP, read-out: KRAS G12V GNE IC50
Sequence (P01116 with tags, fused parts or gaps isoform P01116-2 G12V): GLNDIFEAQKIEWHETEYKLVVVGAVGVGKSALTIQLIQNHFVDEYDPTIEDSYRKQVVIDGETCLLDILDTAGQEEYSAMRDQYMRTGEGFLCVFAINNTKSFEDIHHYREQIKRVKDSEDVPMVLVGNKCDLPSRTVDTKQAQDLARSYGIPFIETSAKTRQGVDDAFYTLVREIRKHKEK
pIC50: −log10 of the molar value.
quantityMeasured: pIC50

CCNC[C@@]1(COc2nc(N3CCCOCC3)c3cc(Cl)c(-c4ccc(F)c5sc(N)c(C#N)c45)c(F)c3n2)CC1(F)F | 7.48
CC1(NC[C@@]2(COc3nc(N4CCCOCC4)c4cc(Cl)c(-c5ccc(F)c6sc(N)c(C#N)c56)c(F)c4n3)CC2(F)F)CC1 | 6.83
Cc1cc(N)nc(-c2c(Cl)cc3c(N4CCCSCC4)nc(OC[C@@]45CCCN4C[C@H](F)C5)nc3c2F)c1C(F)(F)F | 7.23
C[C@@H]1CCCCCN1c1nc(OC[C@@]23CCCN2C[C@H](F)C3)nc2c(F)c(-c3ccc(F)c4sc(N)c(C#N)c34)c(Cl)cc12 | 7.88
N#Cc1c(N)sc2c(F)ccc(-c3c(Cl)cc4c(N5CCOCC5)nc(OC[C@@]56CCCN5C[C@H](F)C6)nc4c3F)c12 | 8.05
CC1(NC[C@@]2(COc3nc(N4CCCOCC4)c4cc(Cl)c(-c5ccc(F)c6sc(N)c(C#N)c56)c(F)c4n3)CC2(F)F)COC1 | 6.56
C[C@H]1CCOCCN1c1nc(OC[C@@]23CCCN2C[C@H](F)C3)nc2c(F)c(-c3ccc(F)c4sc(N)c(C#N)c34)c(Cl)cc12 [Ex. 6] | 8.50
N#Cc1c(N)sc2c(F)ccc(-c3c(C(F)(F)F)cc4c(N5CCCOCC5)nc(OC[C@@]56CCCN5C[C@H](F)C6)nc4c3F)c12 (single isomer, unassigned) | 8.91
CC1COCCCN1c1nc(OC[C@@]23CCCN2C[C@H](F)C3)nc2c(F)c(-c3ccc(F)c4sc(N)c(C#N)c34)c(Cl)cc12 (stereo partly shown) | 8.21
Cc1cc(N)nc(-c2c(Cl)cc3c(N4CCCOCCC4)nc(OC[C@@]45CCCN4C[C@H](F)C5)nc3c2F)c1C(F)(F)F | 7.33
CC1CCN(c2nc(OC[C@@]34CCCN3C[C@H](F)C4)nc3c(F)c(-c4ccc(F)c5sc(N)c(C#N)c45)c(Cl)cc23)CCO1 (stereo partly shown) | 7.38
C[C@@H]1CCOCCN1c1nc(OC[C@@]23CCCN2C[C@H](F)C3)nc2c(F)c(-c3ccc(F)c4sc(N)c(C#N)c34)c(Cl)cc12 | 8.22
CN1CCC[C@H]1COc1nc(N2CCCOCC2)c2cc(Br)c(-c3ccc(F)c4sc(N)c(C#N)c34)c(F)c2n1 | 8.05
